Kindly state MIC for each of the entries shown.
Tested on: Klebsiella pneumoniae
Assay: Antibacterial activity against wild type Klebsiella pneumoniae ATCC 13883 assessed as reduction in microbial growth incubated for 20 to 22 hrs by CLSI based analysis
Type: functional
Settings: time 20-22 hrs
Record the value in µg/mL, omitting the unit from your answer.

response.value for CO[C@@H](CNC(=O)[C@H](NC(=O)[C@H](O)[C@H](C)O)[C@H](O)c1cncn1C)[C@H](O)[C@H](O)C(=O)N(C)[C@@H](Cc1ccc(F)cc1)C(=O)NCC(=O)N[C@H](C(=O)N[C@@H](CO)C(=O)N[C@H](C(=O)N[C@H](C(=O)N[C@@H](CO)C(=O)N[C@@H](CN)C(=O)NCc1cc(=O)c(O)cn1O)C(C)(C)C)C(C)(C)O)C(C)(C)O (field: MIC) = 0.12

Quick note, MIC for CO[C@@H](CNC(=O)[C@H](NC(=O)[C@H](O)[C@H](C)O)[C@H](O)c1cncn1C)[C@H](O)[C@H](O)C(=O)N(C)[C@@H](Cc1ccccc1)C(=O)N[C@@H](C)C(=O)N[C@H](C(=O)N[C@@H](CO)C(=O)N[C@H](C(=O)N[C@H](C(=O)N[C@@H](CO)C(=O)NCc1cc(=O)c(O)cn1O)C(C)(C)C)C(C)(C)O)C(C)(C)O landed at 1
